Target: T1, rat PTH-1R (rat PTHR endogenously expressed on UMR-106 rat osteosarcoma cells) (rat, UniProt P25961 27-591)
T1 sequence (looked up): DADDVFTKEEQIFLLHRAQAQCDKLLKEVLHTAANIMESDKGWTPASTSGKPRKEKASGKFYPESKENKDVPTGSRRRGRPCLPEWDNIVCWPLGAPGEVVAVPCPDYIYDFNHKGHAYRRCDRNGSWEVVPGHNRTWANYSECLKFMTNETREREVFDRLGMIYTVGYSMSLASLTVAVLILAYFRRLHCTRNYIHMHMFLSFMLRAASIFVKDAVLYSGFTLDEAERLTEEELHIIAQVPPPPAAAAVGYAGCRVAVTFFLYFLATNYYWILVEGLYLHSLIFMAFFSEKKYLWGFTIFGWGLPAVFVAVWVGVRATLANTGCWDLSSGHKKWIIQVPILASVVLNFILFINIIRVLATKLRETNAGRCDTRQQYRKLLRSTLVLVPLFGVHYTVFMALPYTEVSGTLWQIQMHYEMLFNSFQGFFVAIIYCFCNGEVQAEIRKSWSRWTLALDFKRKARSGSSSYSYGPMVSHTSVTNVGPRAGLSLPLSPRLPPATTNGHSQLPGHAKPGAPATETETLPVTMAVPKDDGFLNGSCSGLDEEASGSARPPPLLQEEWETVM
Test: cell-based or functional assay
Where no end group is shown, it is not given here. [ ]: non-standard residue; d: D form. Arg(NO2) = N=C(NCCC[C@H](N)C(=O)O)N[N+](=O)[O-]; αMePhe(2,6-F2) = C[C@](N)(Cc1c(F)cccc1F)C(=O)O; αMePhe(2-F) = C[C@](N)(Cc1ccccc1F)C(=O)O; hhPhe = N[C@@H](CCCc1ccccc1)C(=O)O; hArg = N=C(N)NCCCC[C@H](N)C(=O)O; hCit = NC(=O)NCCCC[C@H](N)C(=O)O; Cit = NC(=O)NCCC[C@H](N)C(=O)O; Nle = CCCC[C@H](N)C(=O)O; Ac5c = NC1(C(=O)O)CCCC1; Ac3c = NC1(C(=O)O)CC1; Aib = CC(C)(N)C(=O)O
observed.property: cAMP released with respect to control, 10 nM peptide, UMR-106 cells

Reference set (3 entries):
INSERT INTO measurements (binder, observed_result) VALUES
  ('[Ac5c]V[Aib]EIQ[αMePhe(2,6-F2)][Nle]HQ[Cit]A[Cit][αMePhe(2-F)] [Seq. ID. 351]', '79 percent of control'),
  ('[Aib]V[Ac5c]EIQ[αMePhe(2,6-F2)][Nle]HQ[hArg][Aib][Arg(NO2)][αMePhe(2-F)] [Seq. ID. 256]', '71 percent of control'),
  ('[Aib]V[Aib]EIQ[αMePhe(2-F)][Nle]HQ[Cit][Aib][Cit][αMePhe(2-F)] [Seq. ID. 346]', '51 percent of control');

Dear colleague, I am looking for the recorded cAMP released with respect to control, 10 nM peptide, UMR-106 cells of the following binder: [Ac3c]V[Aib]EIQ[αMePhe(2-F)][Nle]HQ[hArg]A[Arg(NO2)][αMePhe(2,6-F2)][hhPhe] [Seq. ID. 712]
54 percent of control

Dear colleague, I am looking for the recorded cAMP released with respect to control, 10 nM peptide, UMR-106 cells of the following binder: [Aib]V[Aib]EIQ[αMePhe(2,6-F2)][Nle]HQ[hCit][Aib][Arg(NO2)][αMePhe(2,6-F2)] [Seq. ID. 470]
88 percent of control
